# Measurement description: NCI Yeast Anticancer Drug Screen. Data for the mec2-1 strain (AID 157)
# Test conditions: S. cerevisiae mec2-1 strain, at 50.0 µM, active compounds read high
About 79,000 compounds went through this panel and 15% of them were active in at least one assay; those are over-represented in the sample as a whole.
growth inhibition values, listed per item
# value in %; strip the unit string

These recorded examples may help you get a feel for the data.
>  <Compound>
CC(=O)c1cnn(C(N)=O)c1C

>  <Measurement kind>
growth inhibition

>  <Numeric value>
-18.5

$$$$
>  <Compound>
COc1ccc(C2OCC(COC(C)=O)O2)cc1OC (stereo not given)

>  <Measurement kind>
growth inhibition

>  <Numeric value>
6.4

$$$$
>  <Compound>
CC(C)OC(=O)c1cccnc1

>  <Measurement kind>
growth inhibition

>  <Numeric value>
2.2

$$$$
>  <Compound>
NC(=O)C(N)Cc1ccc(OCc2ccccc2)c(OCc2ccccc2)c1 (stereo not given)

>  <Measurement kind>
growth inhibition

>  <Numeric value>
3.35

$$$$
>  <Compound>
CC1=CC(O)CC(C)(C)C1/C=C/C(C)=C/C=C/C(C)=C/C=C/C=C(C)/C=C/C=C(C)/C=C/C1=C(C)CC(O)CC1(C)C (stereo not given)

>  <Measurement kind>
growth inhibition

>  <Numeric value>
-15.4

$$$$
>  <Compound>
Cn1c(=O)c(N=Nc2c(=O)n(C)c(=O)n3c2[nH]c2ccccc23)c2[nH]c3ccccc3n2c1=O

>  <Measurement kind>
growth inhibition

>  <Numeric value>
17.1

$$$$

Q) Field request: growth inhibition | item: "C[N+](C)(C)c1ccc2ccccc2n1"
A) -1.6

Q) # query: growth inhibition of entry C#CC(OC(=O)c1cc([N+](=O)[O-])cc([N+](=O)[O-])c1)C1OC(C)(C)OC1C1COC(C)(C)O1 (stereo not given)
A) 26.4

Q) I am curious: what growth inhibition value has been reported for "C=C(C)S(=O)(=O)c1ccc(C)cc1" ?
A) -16.4

Q) Entry CCOP(=O)(OCC)C(C(=O)OC)C(=O)C(=O)Nc1c(C)cc(Br)cc1C (stereo not given) : reported growth inhibition = ?
A) -17.2

Q) What measured growth inhibition goes with CCOc1cc2c(cc1C(C)c1ccc(OCc3ccccc3)cc1)OCO2 (stereo not given) ?
A) 3.55

Values were extracted from PubChem BioAssay (NCI).
